# experimentalSystem: PPARγ (Homo sapiens)
# Construct: purchased Invitrogen Corporation, Carlsbad, Calif
# testMethodNotes: commercial PPARγ binding assay (Invitrogen; PPAR-LBD/Fluormone PPAR Green complex)
# measurementContext: .3 μM compound; mean of three experiments
recordedEndpoint: Binding to PPARγ (Fluormone displacement signal)

Query: I'd like to know its Binding to PPARγ (Fluormone displacement signal). The compound in question is CCc1ccc([C@@H](O)COc2ccc(CC3SC(=O)NC3=O)cc2)nc1 (stereo partly shown)
Result: 233

Query: I'd like to know its Binding to PPARγ (Fluormone displacement signal). The compound in question is CCc1ccc(CCOc2ccc(CC3(C)SC(=O)NC3=O)cc2)nc1 (single isomer, unassigned) [Compound 6]
Result: 246

Query: I'd like to know its Binding to PPARγ (Fluormone displacement signal). The compound in question is CCc1ccc(C(COc2ccc(CC3SC(=O)NC3=O)cc2)CC(=O)OC)nc1 (stereo not shown)
Result: 222

Query: I'd like to know its Binding to PPARγ (Fluormone displacement signal). The compound in question is CCc1ccc(C(=CC(=O)OC)COc2ccc(CC3SC(=O)NC3=O)cc2)nc1 (stereo not shown)
Result: 227

Query: I'd like to know its Binding to PPARγ (Fluormone displacement signal). The compound in question is CCc1ccc([C@H](O)COc2ccc(CC3SC(=O)NC3=O)cc2)nc1 (stereo partly shown)
Result: 221

Query: I'd like to know its Binding to PPARγ (Fluormone displacement signal). The compound in question is CCc1ccc(C(=CCO)COc2ccc(CC3SC(=O)NC3=O)cc2)nc1 (stereo not shown)
Result: 243

Query: I'd like to know its Binding to PPARγ (Fluormone displacement signal). The compound in question is CCc1ccc(C(=O)COc2ccc(CC3SC(=O)NC3=O)cc2)nc1 (stereo not shown)
Result: 232

Query: I'd like to know its Binding to PPARγ (Fluormone displacement signal). The compound in question is CCc1ccc([C@H](O)COc2ccc(CC3(C)SC(=O)NC3=O)cc2)nc1 (stereo partly shown)
Result: 237

Query: I'd like to know its Binding to PPARγ (Fluormone displacement signal). The compound in question is CCc1ccc(C(O)COc2ccc(CC3(C)SC(=O)NC3=O)cc2)nc1 (stereo not shown)
Result: 230

Query: I'd like to know its Binding to PPARγ (Fluormone displacement signal). The compound in question is CCc1ccc(CCOc2ccc(CC3(C)SC(=O)NC3=O)cc2)nc1 (single isomer, unassigned) [Compound 7]
Result: 246

Query: I'd like to know its Binding to PPARγ (Fluormone displacement signal). The compound in question is CCc1ccc(C(=O)COc2ccc(CC3(C)SC(=O)NC3=O)cc2)nc1 (stereo not shown)
Result: 239

Query: I'd like to know its Binding to PPARγ (Fluormone displacement signal). The compound in question is CCc1ccc(CCOc2ccc(CC3(C)SC(=O)NC3=O)cc2)nc1 (single isomer, unassigned) [Compound 4]
Result: 230

Query: I'd like to know its Binding to PPARγ (Fluormone displacement signal). The compound in question is CCc1ccc([C@@H](O)COc2ccc(CC3(C)SC(=O)NC3=O)cc2)nc1 (stereo partly shown)
Result: 243

====

# experimentalSystem: PPARγ (Homo sapiens)
# Construct: purchased Invitrogen Corporation, Carlsbad, Calif
# Sequence (P37231 238-503 limits assumed): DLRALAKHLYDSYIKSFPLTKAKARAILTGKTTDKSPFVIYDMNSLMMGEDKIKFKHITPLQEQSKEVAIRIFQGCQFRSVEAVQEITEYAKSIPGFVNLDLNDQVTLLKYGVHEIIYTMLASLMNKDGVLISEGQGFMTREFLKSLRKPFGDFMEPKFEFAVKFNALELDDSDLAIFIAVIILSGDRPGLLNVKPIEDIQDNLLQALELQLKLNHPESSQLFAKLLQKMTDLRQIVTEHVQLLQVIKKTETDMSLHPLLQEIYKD
# testMethodNotes: commercial PPARγ binding assay (Invitrogen; PPAR-LBD/Fluormone PPAR Green complex)
# measurementContext: 1 μM compound; mean of three experiments
recordedEndpoint: Binding to PPARγ (Fluormone displacement signal)

Query: I'd like to know its Binding to PPARγ (Fluormone displacement signal). The molecule in question is CCc1ccc([C@@H](O)COc2ccc(CC3(C)SC(=O)NC3=O)cc2)nc1 (some centres unmarked) [Compound 8]
Result: 239

Query: I'd like to know its Binding to PPARγ (Fluormone displacement signal). The molecule in question is CCc1ccc(CCOc2ccc(CC3(C)SC(=O)NC3=O)cc2)nc1 (single isomer, unassigned) [Compound 6]
Result: 233

Query: I'd like to know its Binding to PPARγ (Fluormone displacement signal). The molecule in question is CCc1ccc(C(=CC(=O)OC)COc2ccc(CC3SC(=O)NC3=O)cc2)nc1 (centres unmarked) [Compound 11]
Result: 232

Query: I'd like to know its Binding to PPARγ (Fluormone displacement signal). The molecule in question is CCc1ccc(CCOc2ccc(CC3(C)SC(=O)NC3=O)cc2)nc1 (single isomer, unassigned) [Compound 7]
Result: 248

Query: I'd like to know its Binding to PPARγ (Fluormone displacement signal). The molecule in question is CCc1ccc(C(=O)COc2ccc(CC3(C)SC(=O)NC3=O)cc2)nc1 (centres unmarked) [Compound 10]
Result: 240

Query: I'd like to know its Binding to PPARγ (Fluormone displacement signal). The molecule in question is CCc1ccc(C(O)COc2ccc(CC3(C)SC(=O)NC3=O)cc2)nc1 (centres unmarked) [Compound 5]
Result: 228

Query: I'd like to know its Binding to PPARγ (Fluormone displacement signal). The molecule in question is CCc1ccc([C@@H](O)COc2ccc(CC3SC(=O)NC3=O)cc2)nc1 (some centres unmarked) [Compound 2]
Result: 238

Query: I'd like to know its Binding to PPARγ (Fluormone displacement signal). The molecule in question is CCc1ccc(C(COc2ccc(CC3SC(=O)NC3=O)cc2)CC(=O)OC)nc1 (centres unmarked) [Compound 12]
Result: 198

====

# experimentalSystem: PPARγ (Homo sapiens)
# Construct: purchased Invitrogen Corporation, Carlsbad, Calif
# testMethodNotes: commercial PPARγ binding assay (Invitrogen; PPAR-LBD/Fluormone PPAR Green complex)
# measurementContext: 3 μM compound; mean of three experiments
Kindly supply the reported Binding to PPARγ (Fluormone displacement signal) values for the records listed here.
Could you keep your reply to the number by itself?

Query: I'd like to know its Binding to PPARγ (Fluormone displacement signal). The compound in question is CCc1ccc([C@H](O)COc2ccc(CC3SC(=O)NC3=O)cc2)nc1 (some centres unmarked) [Compound 3]
Result: 185

Query: I'd like to know its Binding to PPARγ (Fluormone displacement signal). The compound in question is CCc1ccc(C(O)COc2ccc(CC3(C)SC(=O)NC3=O)cc2)nc1 (centres unmarked) [Compound 5]
Result: 226

Query: I'd like to know its Binding to PPARγ (Fluormone displacement signal). The compound in question is CCc1ccc([C@@H](O)COc2ccc(CC3SC(=O)NC3=O)cc2)nc1 (some centres unmarked) [Compound 2]
Result: 236

Query: I'd like to know its Binding to PPARγ (Fluormone displacement signal). The compound in question is CCc1ccc([C@H](O)COc2ccc(CC3(C)SC(=O)NC3=O)cc2)nc1 (some centres unmarked) [Compound 9]
Result: 233

Query: I'd like to know its Binding to PPARγ (Fluormone displacement signal). The compound in question is CCc1ccc(CCOc2ccc(CC3(C)SC(=O)NC3=O)cc2)nc1 (single isomer, unassigned) [Compound 7]
Result: 237

Query: I'd like to know its Binding to PPARγ (Fluormone displacement signal). The compound in question is CCc1ccc(CCOc2ccc(CC3(C)SC(=O)NC3=O)cc2)nc1 (single isomer, unassigned) [Compound 6]
Result: 223

Query: I'd like to know its Binding to PPARγ (Fluormone displacement signal). The compound in question is CCc1ccc(C(=CC(=O)OC)COc2ccc(CC3SC(=O)NC3=O)cc2)nc1 (centres unmarked) [Compound 11]
Result: 229

Query: I'd like to know its Binding to PPARγ (Fluormone displacement signal). The compound in question is CCc1ccc(CCOc2ccc(CC3(C)SC(=O)NC3=O)cc2)nc1 (single isomer, unassigned) [Compound 4]
Result: 224

====

# experimentalSystem: PPARγ (Homo sapiens, UniProt P37231)
# Construct: purchased Invitrogen Corporation, Carlsbad, Calif
# testMethodNotes: commercial PPARγ binding assay (Invitrogen; PPAR-LBD/Fluormone PPAR Green complex)
# measurementContext: 10 μM compound; mean of three experiments
# Description: The ability of several exemplary compounds of the present invention, shown in Table A, to bind to PPARγ was measured using a commercial binding assay (Invitrogen Corporation, Carlsbad, Calif.) that measures the test compounds ability to bind with PPAR-LBD/Fluormone PPAR Green complex. These assays were performed on three occasions with each assay using four separate wells (quadruplicate) at each concentration of tested compound. […]
recordedEndpoint: Binding to PPARγ (Fluormone displacement signal)

Query: I'd like to know its Binding to PPARγ (Fluormone displacement signal). The compound in question is CCc1ccc(C(=O)COc2ccc(CC3SC(=O)NC3=O)cc2)nc1 (stereo not shown)
Result: 207

Query: I'd like to know its Binding to PPARγ (Fluormone displacement signal). The compound in question is CCc1ccc(C(=O)COc2ccc(CC3(C)SC(=O)NC3=O)cc2)nc1 (stereo not shown)
Result: 219

Query: I'd like to know its Binding to PPARγ (Fluormone displacement signal). The compound in question is CCc1ccc(CCOc2ccc(CC3(C)SC(=O)NC3=O)cc2)nc1 (single isomer, unassigned) [Compound 6]
Result: 198

Query: I'd like to know its Binding to PPARγ (Fluormone displacement signal). The compound in question is CCc1ccc(CCOc2ccc(CC3(C)SC(=O)NC3=O)cc2)nc1 (single isomer, unassigned) [Compound 4]
Result: 200

Query: I'd like to know its Binding to PPARγ (Fluormone displacement signal). The compound in question is CCc1ccc([C@H](O)COc2ccc(CC3(C)SC(=O)NC3=O)cc2)nc1 (stereo partly shown)
Result: 234

Query: I'd like to know its Binding to PPARγ (Fluormone displacement signal). The compound in question is CCc1ccc(C(COc2ccc(CC3SC(=O)NC3=O)cc2)CC(=O)OC)nc1 (stereo not shown)
Result: 112

Query: I'd like to know its Binding to PPARγ (Fluormone displacement signal). The compound in question is CCc1ccc(C(=CC(=O)OC)COc2ccc(CC3SC(=O)NC3=O)cc2)nc1 (stereo not shown)
Result: 165

Query: I'd like to know its Binding to PPARγ (Fluormone displacement signal). The compound in question is CCc1ccc([C@H](O)COc2ccc(CC3SC(=O)NC3=O)cc2)nc1 (stereo partly shown)
Result: 134

Query: I'd like to know its Binding to PPARγ (Fluormone displacement signal). The compound in question is CCc1ccc([C@@H](O)COc2ccc(CC3SC(=O)NC3=O)cc2)nc1 (stereo partly shown)
Result: 223

Query: I'd like to know its Binding to PPARγ (Fluormone displacement signal). The compound in question is CCc1ccc(C(=CCO)COc2ccc(CC3SC(=O)NC3=O)cc2)nc1 (stereo not shown)
Result: 204

Query: I'd like to know its Binding to PPARγ (Fluormone displacement signal). The compound in question is CCc1ccc(CCOc2ccc(CC3(C)SC(=O)NC3=O)cc2)nc1 (single isomer, unassigned) [Compound 7]
Result: 210

Query: I'd like to know its Binding to PPARγ (Fluormone displacement signal). The compound in question is CCc1ccc([C@@H](O)COc2ccc(CC3(C)SC(=O)NC3=O)cc2)nc1 (stereo partly shown)
Result: 233

Query: I'd like to know its Binding to PPARγ (Fluormone displacement signal). The compound in question is CCc1ccc(C(O)COc2ccc(CC3(C)SC(=O)NC3=O)cc2)nc1 (stereo not shown)
Result: 212
